# test_summary: Oral acute toxicity (LD50) in the mouse
# run_parameters: in vivo
Where a name gives a salt, the structure may show the parent alone.
value_kind: LD50 (mg/kg)

INSERT INTO results (compound, uom, reported_measurement) VALUES
  ('CCN1CCc2nc(N)oc2CC1 [Compound A, dihydrochloride]', 'mg/kg', 2.21),
  ('C=CCN1CCc2nc(N)sc2CC1.Cl.Cl', 'mg/kg', 455);

Measured values drawn from patent US4400378A for this set.
